Each entry below carries its recorded growth.
tested on: SR leukemia; assay: NCI-60 one-dose screen, 48 h (100 = growth as untreated, 0 = no growth, -100 = all killed); details: 10 µM unless noted
The panel holds about 83,000 compounds, 20% with a hit somewhere; the sample as a whole holds those more often.
Quick note: give the figure in %, leave out the unit.

| structure.string | unit.info | growth |
| --- | --- | --- |
| Clc1ccc(CNc2ccc3nc(CCC4CCCCC4)[nH]c3c2)cc1 | % | 26.2 |
| O=C(c1cccc(Br)c1)N1CCN(c2ccnc3cc(Cl)ccc23)CC1 | % | 118 |
| COc1cc(N=Nc2ccc(O)c3ncccc23)c2ncccc2c1 | % | 7.54 |
| Cc1ccc(-c2nc3nc(-c4ccc(F)cc4)nc(N4CCCNCC4)c3o2)cc1 | % | -37.3 |

Problem: // query growth value for entry `Nc1nc(Nc2ccc(F)cc2)nn1C(=O)c1cc(Cl)ccc1Cl`
Result: 37.5

Problem: // query growth value for entry `Clc1cccc(Nc2ncnc3ccc(-c4cncc(-n5cnnn5)c4)cc23)c1`
Result: 71.2
